Tested on: Streptococcus pneumoniae DP1 TypeI
Assay: Antibacterial activity test (agar dilution MIC)
Assay type: cell-based
Details: DP1TYPEI; test bacterium B = Streptococcus pneumoniae DP1 TypeI; blood agar medium, 37° C., about 20 hours; read-out: Minimum inhibitory concentration (MIC)
Test readout: MIC (µg/mL)
Give bare numbers, in µg/mL.

In the examples that follow, each entry is paired with its recorded MIC.
CCC(=O)O[C@@H]1CC(=O)O[C@@H](C/C=C/c2cnc3ncccc3c2)CCCN(C)C[C@H](O)[C@H](C)C[C@H](CC=O)[C@H](O[C@@H]2OC(C)[C@@H](O[C@H]3CC(C)(OC(C)=O)[C@@H](OC(=O)CC)C(C)O3)C(N(C)C)C2O)[C@H]1OC (stereo partly shown) :: 0.015
CCCC(=O)O[C@H]1C(C)O[C@@H](O[C@@H]2C(C)O[C@@H](O[C@H]3[C@@H](CC=O)C[C@@H](C)[C@@H](O)CN(C)CCC[C@H](C/C=C/c4cncc5ccccc45)OC(=O)C[C@@H](O)[C@@H]3OC)C(O)C2N(C)C)CC1(C)OC(=O)CC (stereo partly shown) :: 0.015
CCC(=O)O[C@@H]1CC(=O)O[C@@H](C/C=C/c2cnc3ccccc3c2)CCCN(C)C[C@H](O)[C@H](C)C[C@H](CC=O)[C@H](O[C@@H]2OC(C)[C@@H](O[C@H]3CC(C)(O)[C@@H](OC(=O)CC)C(C)O3)C(N(C)C)C2O)[C@H]1OC (stereo partly shown) :: 0.015

Reported MIC ( CCC(=O)OC1C(C)O[C@@H](O[C@@H]2C(C)O[C@@H](O[C@H]3[C@@H](CC=O)C[C@@H](C)[C@@H](O)CN(C)CCC(/C=C/Cc4ccnc5ccccc45)NC(=O)C[C@@H](OC(=O)CC)[C@@H]3OC)C(O)C2N(C)C)CC1(C)O (stereo partly shown) ) = 0.03
